Reported A450 (13 nM Ab) values for a set of binders
MEASURED_ON: T1, human IL-21R expressed on cells (human, UniProt Q9HBE5 20-538)
T1 construct: also called human IL-21R-BaF3; human IL-21R-TF1
TEST_PROTOCOL: cell ELISA, CHO cells
Field format: number, assumed A450, no unit text.

Illustrative cases are given below, each with its answer.
## Task Fill in: A450 (13 nM Ab) of AbQ (antibody, human IgG1, V domains shown, CDR3 graft, residue limits derived as for m29; also called VH3/VL2; VH3DM/VL2) VH: QVQLQESGPGLVKPSETLSLTCAVSGYSISSGYYWGWIRQPPGKGLEWIGSISHTGNTYYNPPLKSRVTISVDTSKNQFSLKLSSVTAADTAVYYCARFMGFGRPEYWGQGTLVTVSS VL: SSELTQDPAVSVALGQTVRITCQGDSLRTYYASWYQQKPGQAPVLVIYGKHKRPSGIPDRFSGSSSGNTASLTITGAQAEDEADYYCVARSVVGNPHVLFGGGTQLTVL is ___
## Result 1.25

## Task Fill in: A450 (13 nM Ab) of AbF (antibody, IgG1, V domains shown, As for AbA: IgG1/lambda, CDR3 graft, residue limits derived; also called VHP/VL17) VH: QVQLQESGPGLVKPSETLSLTCAVSGYSISSGYYWGWIRQPPGKGLEWIGSISHTGNTYYNPPLKSRVTISVDTSKNQFSLKLSSVTAADTAVYYCARGGGISRPEYWGQGTLVTVSS VL: SSELTQDPAVSVALGQTVRITCQGDSLRTYYASWYQQKPGQAPVLVIYGKHKRPSGIPDRFSGSSSGNTASLTITGAQAEDEADYYCSTRSRKGNPHVLFGGGTQLTVL is ___
## Result 1.35

Kindly review the next binder as well.
## Task Fill in: A450 (13 nM Ab) of AbD (antibody, IgG1, V domains shown, As for AbA: IgG1/lambda, CDR3 graft, residue limits derived; also called VHP/VL13) VH: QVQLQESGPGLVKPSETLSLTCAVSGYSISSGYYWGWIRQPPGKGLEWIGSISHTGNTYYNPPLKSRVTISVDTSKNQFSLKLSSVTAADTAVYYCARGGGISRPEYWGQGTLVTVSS VL: SSELTQDPAVSVALGQTVRITCQGDSLRTYYASWYQQKPGQAPVLVIYGKHKRPSGIPDRFSGSSSGNTASLTITGAQAEDEADYYCVTRNRYGNPHVLFGGGTQLTVL is ___
## Result 1.25

These entries and their values trace back to patent US20120276102A1.
